# assay system: HsDHODH R136A (Homo sapiens, UniProt Q02127, R135A)
# Sequence (Q02127 32-395 R135A): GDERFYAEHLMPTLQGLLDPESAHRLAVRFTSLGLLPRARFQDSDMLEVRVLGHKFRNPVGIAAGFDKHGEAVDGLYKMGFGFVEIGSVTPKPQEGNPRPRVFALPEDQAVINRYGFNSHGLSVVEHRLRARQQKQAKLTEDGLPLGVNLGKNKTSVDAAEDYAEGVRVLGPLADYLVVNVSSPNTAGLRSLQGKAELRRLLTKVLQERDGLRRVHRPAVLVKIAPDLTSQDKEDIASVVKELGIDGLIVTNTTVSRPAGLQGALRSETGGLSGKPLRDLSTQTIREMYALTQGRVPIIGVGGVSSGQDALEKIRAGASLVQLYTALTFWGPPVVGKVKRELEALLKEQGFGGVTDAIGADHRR
# test protocol: biochemical
Reported IC50 values follow for various compounds

                                   compound  recorded_value
0  Cc1cc(Nc2ccc(C(F)(F)F)c(F)c2)n2nc(C(C)(F)F)nc2n1 [Compound 10]        > 100 µM
1  Cc1cc(Nc2cc(F)c(C(F)(F)F)c(F)c2)n2nc(C(C)(F)F)nc2n1 [Compound 11]        > 100 µM

Consider the additional compound presented here.
Give recorded IC50 with HsDHODH R136A (Homo sapiens, UniProt Q02127, R135A) for the following compound: Cc1cc(Nc2cc(F)c(C(F)(F)F)c(F)c2)n2nc(C(F)(F)F)nc2n1 [Compound 6]
> 100 µM

###

# assay system: PfDHODH (Plasmodium falciparum, UniProt Q08210, DEL384-413)
# test protocol: Isothermal titration calorimetry
# Type: binding
# study conditions: ITC, 303 K
quantity kind: –TΔS PfDHODH

Name the reported –TΔS PfDHODH value associated with the compound Cc1cc(Nc2ccc(C(F)(F)F)cc2)n2ncnc2n1
1.5 kcal/mol
